Data provenance: patent US20240409617A1

# TESTED_TARGET: WT Spike (SARS-CoV2)
pKd: −log10 of the molar value.
pKd values by entry

BINDER: RBD-R3-E1-A5 Ab (Ab_30) scFv-Fc (scFv, V domains shown) VH: QVQLVQSGGGVVQPGKSLRLSCTASGFTFSDFPIHWVRQAPGKGLEWVGVISYDGNIKYYGDSVKGRFTISRDNAKNSLYLQMNSLRVEDTAVYYCARGGSSFDIWGQGTTVTVSS VL: SYELTQPPSVSEAPRQRVTISCSGSTSNIGNNAVSWYQHLPGKAPKLLIYYNERLPSGVSDRFSGSKSGTSASLAISGLRSEDEADYYCAAWDDSLSGHVVFGGGTKLTVL
pKd: 11.99
//
BINDER: Ab_20 scFv-Fc (scFv, V domains shown) VH: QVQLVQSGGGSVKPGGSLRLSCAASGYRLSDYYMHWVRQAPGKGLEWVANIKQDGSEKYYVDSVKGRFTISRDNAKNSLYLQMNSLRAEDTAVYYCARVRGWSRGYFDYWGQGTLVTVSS VL: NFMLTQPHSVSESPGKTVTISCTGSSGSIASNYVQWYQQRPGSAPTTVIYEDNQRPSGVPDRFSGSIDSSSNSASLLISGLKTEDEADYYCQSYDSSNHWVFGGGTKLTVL
pKd: 11.05
//
BINDER: Ab_28 scFv-Fc (scFv, V domains shown) VH: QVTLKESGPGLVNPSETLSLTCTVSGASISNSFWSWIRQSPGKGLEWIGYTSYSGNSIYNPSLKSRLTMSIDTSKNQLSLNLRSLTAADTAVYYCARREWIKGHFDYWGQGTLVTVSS VL: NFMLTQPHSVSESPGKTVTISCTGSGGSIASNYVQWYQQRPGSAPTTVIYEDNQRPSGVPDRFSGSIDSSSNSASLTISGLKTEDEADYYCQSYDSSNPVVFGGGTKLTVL
pKd: 11.05
